Where do these numbers come from? They come from the NIST ThermoML archive (doi:10.1021/je200637v).

What activity coefficient was measured for each of the following?
Assay: activity coefficient (dimensionless); of the first substance listed, at infinite dilution; xn = mol fraction of the nth substance listed
Settings: 332.65 K; Liquid; Chromatography; x1 = 0
Give your answer as a number; write no unit.

-- ask Requested field: activity coefficient. Item: CCO [ethanol] + CCCC[N+](C)(CCCC)CCCC.O=S(=O)([N-]S(=O)(=O)C(F)(F)F)C(F)(F)F
-- reply 1.4

-- ask Requested field: activity coefficient. Item: c1ccncc1 [pyridine] + CCCCCCCCCC[N+](C)(C)C.O=S(=O)([N-]S(=O)(=O)C(F)(F)F)C(F)(F)F
-- reply 0.47

-- ask Requested field: activity coefficient. Item: CCC[N+](=O)[O-] [1-nitropropane] + CCCC[N+](C)(CCCC)CCCC.O=S(=O)([N-]S(=O)(=O)C(F)(F)F)C(F)(F)F
-- reply 0.7

-- ask Requested field: activity coefficient. Item: C=CCCCC [hex-1-ene] + CCCC[N+](C)(CCCC)CCCC.O=S(=O)([N-]S(=O)(=O)C(F)(F)F)C(F)(F)F
-- reply 4.4

-- ask Requested field: activity coefficient. Item: CCCCCCCCCC [decane] + CCCCCCCCCC[N+](C)(C)C.O=S(=O)([N-]S(=O)(=O)C(F)(F)F)C(F)(F)F
-- reply 9.82

-- ask Requested field: activity coefficient. Item: c1ccsc1 [thiophene] + CCCC[N+](C)(CCCC)CCCC.O=S(=O)([N-]S(=O)(=O)C(F)(F)F)C(F)(F)F
-- reply 0.88

-- ask Requested field: activity coefficient. Item: CCCCCCCCCC [decane] + CCCCCCCC[N+](CCCCCCCC)(CCCCCCCC)CCCCCCCC.O=S(=O)([N-]S(=O)(=O)C(F)(F)F)C(F)(F)F
-- reply 2.32

-- ask Requested field: activity coefficient. Item: C1CCCCC1 [cyclohexane] + CCCC[N+](C)(CCCC)CCCC.O=S(=O)([N-]S(=O)(=O)C(F)(F)F)C(F)(F)F
-- reply 4.71

-- ask Requested field: activity coefficient. Item: CC(C)CO [2-methyl-1-propanol] + CCCCCCCCCC[N+](C)(C)C.O=S(=O)([N-]S(=O)(=O)C(F)(F)F)C(F)(F)F
-- reply 1.47

-- ask Requested field: activity coefficient. Item: C#CCCCC [1-hexyne] + CCCCCCCC[N+](C)(C)C.O=S(=O)([N-]S(=O)(=O)C(F)(F)F)C(F)(F)F
-- reply 1.89

-- ask Requested field: activity coefficient. Item: Cc1ccccc1 [toluene] + CCCCCCCC[N+](C)(C)C.O=S(=O)([N-]S(=O)(=O)C(F)(F)F)C(F)(F)F
-- reply 0.98

-- ask Requested field: activity coefficient. Item: CC1CCCC1 [methylcyclopentane] + CCCCCCCC[N+](CCCCCCCC)(CCCCCCCC)CCCCCCCC.O=S(=O)([N-]S(=O)(=O)C(F)(F)F)C(F)(F)F
-- reply 0.97

-- ask Requested field: activity coefficient. Item: C1CCCCCC1 [cycloheptane] + CCCCCCCC[N+](CCCCCCCC)(CCCCCCCC)CCCCCCCC.O=S(=O)([N-]S(=O)(=O)C(F)(F)F)C(F)(F)F
-- reply 3.16

-- ask Requested field: activity coefficient. Item: ClC(Cl)(Cl)Cl [tetrachloromethane] + CCCCCCCC[N+](C)(C)C.O=S(=O)([N-]S(=O)(=O)C(F)(F)F)C(F)(F)F
-- reply 1.63
